The measured values listed here are drawn from the supplement of paper PMC10567573.

B1: DLC1 (parent)
chain: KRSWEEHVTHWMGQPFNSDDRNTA

- Variants of: B1
- Protocol text: protein stability index of a GFP-peptide fusion (GPS, HEK-293T) (PSI 1-6); higher = more stable;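 further: lentivirally expressed fusions sorted by FACS into six bins by GFP to DsRed ratio, PSI derived from sequencing read proportions per bin multiplied by bin number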
- Particulars: c terminus: a fixed tail appended
Response key: MET means protein stability index >= 3; NOT MET means protein stability index < 3.

Some entries whose results are on file:
>  <Variant key>
D19W

>  <Class assignment>
NOT MET

$$$$
>  <Variant key>
D20L

>  <Class assignment>
NOT MET

$$$$
>  <Variant key>
G13C

>  <Class assignment>
NOT MET

$$$$

Hi team, for M12N , is the recorded protein stability index at or above 3?
NOT MET

Hi team, for N22G , is the recorded protein stability index at or above 3?
NOT MET

Hi team, for N22Q , is the recorded protein stability index at or above 3?
NOT MET
